Origin of the recorded values: paper PMC8556085

# System: Pseudomonas aeruginosa ATCC27853
# Procedure Text: Broth microdilution MIC/MMC
# Assay type: cell-based
# Test Settings: Pseudomonas aeruginosa ATCC27853
// MMC/MIC lookup, one value per entry
// no unit string in output, number only

Solved cases (2 shown):
Compound	Measured
O=c1cc(-c2ccc(O[C@@H]3O[C@H](CO)[C@@H](O)[C@H](O)[C@H]3O)c(O)c2)oc2cc(O)cc(O)c12 [compound 4, luteolin-4′-O-β-D-glucopyranoside]	2
COc1ccc(-c2coc3cc(O[C@@H]4O[C@H](CO)[C@@H](O)[C@H](O)[C@H]4O)ccc3c2=O)cc1	1

# input for lookup
Hi! What's the reported MMC/MIC for O=c1cc(-c2ccc(O)c(O)c2)oc2cc(O)cc(O)c12 on Pseudomonas aeruginosa ATCC27853?
2

###

# System: Pseudomonas aeruginosa ATCC27853
# Procedure Text: Broth microdilution MIC/MMC
# Type: cell-based
# Test Settings: Pseudomonas aeruginosa ATCC27853
// MMC/MIC lookup, one value per entry
// no unit string in output, number only

Solved cases (2 shown):
Compound	Measured
Cc1onc(-c2ccccc2)c1C(=O)N[C@@H]1C(=O)N2[C@@H]1SC(C)(C)[C@@H]2C(=O)O [oxacillin, reference compound]	1
COc1ccc(-c2coc3cc(O)ccc3c2=O)cc1	1

# input for lookup
Hi! What's the reported MMC/MIC for COc1ccc(-c2coc3cc(O)cc(O)c3c2=O)cc1 on Pseudomonas aeruginosa ATCC27853?
2

###

# Test system: methicillin-resistant Staphylococcus aureus 03 (MRSA03)
# Procedure Text: Broth microdilution MIC/MMC
# Format: cell-based
# Test Settings: Staphylococcus aureus; MRSA03, 24 h, 37°C; read-out: MIC
Readout Label: MIC

Solved cases (2 shown):
Compound	Measured
OC[C@@H](O)[C@@H](O)[C@H](O)[C@H](O)CO [compound 9, D-mannitol]	> 256 mg/L
CC1(C)CC(O)C2(C)CCC3(C)C(=CCC4C5(C)CCC(OC6OC(C(=O)O)C(O)C(O)C6O)C(C)(CO)C5CCC43C)C2C1 (stereo not drawn) [compound 10]	> 256 mg/L

# input for lookup
Given the entry CO[C@@H]1O[C@H](CO)[C@@H](O)[C@H](O)[C@H]1O [compound 7, 1-methyl-β-D-glucopyranoside] , report its measured MIC.
> 256 mg/L
